# System: carrageenan-induced toe swelling
# assay.text: Carrageenan-induced toe swelling in rats
# Assay type: in vivo
# condition.context: SD rats, 2.0 mg/kg once a day for 3 d, 3 h after carrageenan
# Method: The rats were injected once a day, and the model group was given the same volume of normal saline for 3 d and fed normally. […] The foot swelling degree was calculated according to the following formula: foot swelling degree (mL)=foot volume after inflammation-foot volume before inflammation. […]
Peptide text beside a SMILES is read from it. * marks the point of attachment. X65 = O=C1C=CC(=O)N1c1cccc(CCCCCCCCCCCCC(=O)*)c1; X59 = O=C1C=CC(=O)N1c1cccc(CCCCCCCCC(=O)*)c1; X66 = O=C1C=CC(=O)N1c1cccc(CCCCCCCC(=O)*)c1; X55 = O=C1C=CC(=O)N1c1ccccc1CCCCCCCCC(=O)*; X63 = O=C1C=CC(=O)N1c1ccccc1CCCCCCC(=O)*; X61 = O=C1C=CC(=O)N1c1cccc(CCCC(=O)*)c1
outcome.measure: Swelling degree 3 h (mg)

• C[C@H](NC(=O)CNC(=O)[C@H](CCCNC(=N)N)NC(=O)CCCc1cccc(N2C(=O)C=CC2=O)c1)C(=O)N[C@@H](CC(=O)O)C(=O)N[C@@H](CCCNC(=N)N)C(=O)N[C@@H](C)C(=O)NCC(=O)NCC(=O)NCC(=O)NCC(=O)N[C@@H](CCCNC(=N)N)C(=O)NCC(=O)N[C@@H](CC(=O)O)C(=O)O [X27] (X61-RGADRAGGGGRGD-OH) = 0.33
• C[C@H](NC(=O)CNC(=O)[C@H](CCCNC(=N)N)NC(=O)CCCCCCCCCCCCc1cccc(N2C(=O)C=CC2=O)c1)C(=O)N[C@@H](CC(=O)O)C(=O)N[C@@H](CCCNC(=N)N)C(=O)N[C@@H](C)C(=O)NCC(=O)NCC(=O)NCC(=O)NCC(=O)N[C@@H](CCCNC(=N)N)C(=O)NCC(=O)N[C@@H](CC(=O)O)C(=O)O [X36] (X65-RGADRAGGGGRGD-OH) = 0.34
• C[C@H](NC(=O)CNC(=O)[C@H](CCCNC(=N)N)NC(=O)CCCCCCCCc1cccc(N2C(=O)C=CC2=O)c1)C(=O)N[C@@H](CC(=O)O)C(=O)N[C@@H](CCCNC(=N)N)C(=O)N[C@@H](C)C(=O)NCC(=O)NCC(=O)NCC(=O)NCC(=O)N[C@@H](CCCNC(=N)N)C(=O)NCC(=O)N[C@@H](CC(=O)O)C(=O)O [X32] (X59-RGADRAGGGGRGD-OH) = 0.35
• C[C@H](NC(=O)CNC(=O)[C@H](CCCNC(=N)N)NC(=O)CCCCCCc1ccccc1N1C(=O)C=CC1=O)C(=O)N[C@@H](CC(=O)O)C(=O)N[C@@H](CCCNC(=N)N)C(=O)N[C@@H](C)C(=O)NCC(=O)NCC(=O)NCC(=O)NCC(=O)N[C@@H](CCCNC(=N)N)C(=O)NCC(=O)N[C@@H](CC(=O)O)C(=O)O [X18] (X63-RGADRAGGGGRGD-OH) = 0.33
• C[C@H](NC(=O)CNC(=O)[C@H](CCCNC(=N)N)NC(=O)CCCCCCCc1cccc(N2C(=O)C=CC2=O)c1)C(=O)N[C@@H](CC(=O)O)C(=O)N[C@@H](CCCNC(=N)N)C(=O)N[C@@H](C)C(=O)NCC(=O)NCC(=O)NCC(=O)NCC(=O)N[C@@H](CCCNC(=N)N)C(=O)NCC(=O)N[C@@H](CC(=O)O)C(=O)O [X31] (X66-RGADRAGGGGRGD-OH) = 0.37
• C[C@H](NC(=O)CNC(=O)[C@H](CCCNC(=N)N)NC(=O)CCCCCCCCc1ccccc1N1C(=O)C=CC1=O)C(=O)N[C@@H](CC(=O)O)C(=O)N[C@@H](CCCNC(=N)N)C(=O)N[C@@H](C)C(=O)NCC(=O)NCC(=O)NCC(=O)NCC(=O)N[C@@H](CCCNC(=N)N)C(=O)NCC(=O)N[C@@H](CC(=O)O)C(=O)O [X20] (X55-RGADRAGGGGRGD-OH) = 0.34

###

# A570 nm-A630 nm values compiled below
# Test system: human retinal capillary endothelial cells (HRCECs)
# assay.text: MTT proliferation inhibition on HRCECs
# Type: cell-based
# condition.context: 48 h, dose 0.2 μM, mean±SD
Peptide text beside a SMILES is read from it. * marks the point of attachment. X71 = O=C1C=CC(=O)N1c1cccc(CCCCCC(=O)*)c1; X46 = O=C1C=CC(=O)N1c1cccc(CCCCC(=O)*)c1
outcome.measure: A570 nm-A630 nm

• C[C@H](NC(=O)CNC(=O)[C@H](CCCNC(=N)N)NC(=O)CCCCc1cccc(N2C(=O)C=CC2=O)c1)C(=O)N[C@@H](CC(=O)O)C(=O)N[C@@H](CCCNC(=N)N)C(=O)N[C@@H](C)C(=O)NCC(=O)NCC(=O)NCC(=O)NCC(=O)N[C@@H](CCCNC(=N)N)C(=O)NCC(=O)N[C@@H](CC(=O)O)C(=O)O [X28] (X46-RGADRAGGGGRGD-OH) = 0.4004
• C[C@H](NC(=O)CNC(=O)[C@H](CCCNC(=N)N)NC(=O)CCCCCc1cccc(N2C(=O)C=CC2=O)c1)C(=O)N[C@@H](CC(=O)O)C(=O)N[C@@H](CCCNC(=N)N)C(=O)N[C@@H](C)C(=O)NCC(=O)NCC(=O)NCC(=O)NCC(=O)N[C@@H](CCCNC(=N)N)C(=O)NCC(=O)N[C@@H](CC(=O)O)C(=O)O [X29] (X71-RGADRAGGGGRGD-OH) = 0.5151

###

# assay.text: Half-lives and pharmacokinetic parameters of polypeptides vs HM-1
# condition.context: in vivo; read-out: MRT0-∞
Peptide text beside a SMILES is read from it. * marks the point of attachment. Butanoyl(4-maleimido) = O=C1C=CC(=O)N1CCCC(=O)*; Propanoyl(3-maleimido) = O=C1C=CC(=O)N1CCC(=O)*; X45 = O=C1C=CC(=O)N1CCCCC(=O)*
outcome.measure: MRT inf (h)

- C[C@H](NC(=O)CNC(=O)[C@H](CCCNC(=N)N)NC(=O)CCCN1C(=O)C=CC1=O)C(=O)N[C@@H](CC(=O)O)C(=O)N[C@@H](CCCNC(=N)N)C(=O)N[C@@H](C)C(=O)NCC(=O)NCC(=O)NCC(=O)NCC(=O)N[C@@H](CCCNC(=N)N)C(=O)NCC(=O)N[C@@H](CC(=O)O)C(=O)O [X3] ({Butanoyl(4-maleimido)}-RGADRAGGGGRGD-OH): 60.5
- C[C@H](NC(=O)[C@H](CCCNC(=N)N)NC(=O)[C@H](CC(=O)O)NC(=O)CNC(=O)[C@H](CCCNC(=N)N)NC(=O)CCN1C(=O)C=CC1=O)C(=O)NCC(=O)NCC(=O)NCC(=O)NCC(=O)N[C@@H](CCCNC(=N)N)C(=O)NCC(=O)N[C@@H](CC(=O)O)C(=O)O [P7] ({Propanoyl(3-maleimido)}-RGDRAGGGGRGD-OH; C-terminus assumed): 57.2
- C[C@H](NC(=O)CNC(=O)[C@H](CCCNC(=N)N)NC(=O)CCCCN1C(=O)C=CC1=O)C(=O)N[C@@H](CC(=O)O)C(=O)N[C@@H](CCCNC(=N)N)C(=O)N[C@@H](C)C(=O)NCC(=O)NCC(=O)NCC(=O)NCC(=O)N[C@@H](CCCNC(=N)N)C(=O)NCC(=O)N[C@@H](CC(=O)O)C(=O)O [X4] (X45-RGADRAGGGGRGD-OH): 54

###

# assay.text: Half-lives and pharmacokinetic parameters of polypeptides vs HM-1
# condition.context: in vivo
Peptide text beside a SMILES is read from it. * marks the point of attachment. X18 = O=C1C=CC(=O)N1CCOCCOCCOCCOCCOCCOCCCCCCCC(=O)*; X22 = O=C1C=CC(=O)N1CCOCCOCCOCCOCCOCCOCCCCCC(=O)*; X44 = O=C1C=CC(=O)N1c1ccc(CCCCCCCC(=O)*)cc1
Catalogue of AUC(0-inf) values
outcome.measure: AUC(0-inf) (ng·h/mL)

* C[C@H](NC(=O)CNC(=O)[C@H](CCCNC(=N)N)NC(=O)CCCCCOCCOCCOCCOCCOCCOCCN1C(=O)C=CC1=O)C(=O)N[C@@H](CC(=O)O)C(=O)N[C@@H](CCCNC(=N)N)C(=O)N[C@@H](C)C(=O)NCC(=O)NCC(=O)NCC(=O)NCC(=O)N[C@@H](CCCNC(=N)N)C(=O)NCC(=O)N[C@@H](CC(=O)O)C(=O)O [X88] (X22-RGADRAGGGGRGD-OH) | 31800
* C[C@H](NC(=O)CNC(=O)[C@H](CCCNC(=N)N)NC(=O)CCCCCCCOCCOCCOCCOCCOCCOCCN1C(=O)C=CC1=O)C(=O)N[C@@H](CC(=O)O)C(=O)N[C@@H](CCCNC(=N)N)C(=O)N[C@@H](C)C(=O)NCC(=O)NCC(=O)NCC(=O)NCC(=O)N[C@@H](CCCNC(=N)N)C(=O)NCC(=O)N[C@@H](CC(=O)O)C(=O)O [X90] (X18-RGADRAGGGGRGD-OH) | 27600
* C[C@H](NC(=O)CNC(=O)[C@H](CCCNC(=N)N)NC(=O)CCCCCCCc1ccc(N2C(=O)C=CC2=O)cc1)C(=O)N[C@@H](CC(=O)O)C(=O)N[C@@H](CCCNC(=N)N)C(=O)N[C@@H](C)C(=O)NCC(=O)NCC(=O)NCC(=O)NCC(=O)N[C@@H](CCCNC(=N)N)C(=O)NCC(=O)N[C@@H](CC(=O)O)C(=O)O [X43] (X44-RGADRAGGGGRGD-OH) | 26700
